measurement target: human COX-2 (Homo sapiens, UniProt P35354)
Sequence (P35354 18-604): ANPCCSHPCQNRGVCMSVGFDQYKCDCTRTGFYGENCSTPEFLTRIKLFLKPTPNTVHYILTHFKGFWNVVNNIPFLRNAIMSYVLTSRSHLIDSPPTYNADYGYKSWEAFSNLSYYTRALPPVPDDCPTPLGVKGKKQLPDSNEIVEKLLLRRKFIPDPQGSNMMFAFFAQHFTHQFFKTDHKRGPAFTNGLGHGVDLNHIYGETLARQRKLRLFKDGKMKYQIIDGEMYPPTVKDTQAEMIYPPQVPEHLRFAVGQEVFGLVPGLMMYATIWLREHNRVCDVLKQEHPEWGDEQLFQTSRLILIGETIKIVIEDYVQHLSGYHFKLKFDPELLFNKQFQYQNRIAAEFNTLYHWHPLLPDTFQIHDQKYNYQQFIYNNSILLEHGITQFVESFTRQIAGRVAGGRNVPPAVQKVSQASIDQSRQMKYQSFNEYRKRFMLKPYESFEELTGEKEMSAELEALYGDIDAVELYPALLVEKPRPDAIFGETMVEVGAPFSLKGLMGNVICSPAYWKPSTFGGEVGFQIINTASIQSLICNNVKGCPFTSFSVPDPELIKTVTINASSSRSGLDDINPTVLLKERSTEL
method notes: In vitro COX-2 inhibition assay
condition: Selectivity index = COX-1 IC50/COX-2 IC50
reported metric: COX-2 SI

Consider the reported COX-2 SI for these molecules:
molecule	COX-2 SI
O=C(Nc1ccc(-c2n[nH]c(=S)n2N=Cc2c[nH]c3ccccc23)cc1)c1cccnc1 [Compound 10b]	72.73
CC(=O)c1ccc(NC(=O)CSc2nnc(-c3ccc(NC(=O)c4cccnc4)cc3)n2N)cc1 [Compound 11a]	77.27
CC(=O)c1ccc(NC(=O)CSc2nnc(-c3ccc(NC(=O)c4cccnc4)cc3)o2)cc1	230
Cc1ccc(NC(=O)CSc2nnc(-c3ccc(NC(=O)c4cccnc4)cc3)o2)cc1	230
O=C(CSc1nnc(-c2ccc(NC(=O)c3cccnc3)cc2)o1)Nc1ccc(F)cc1	68.18

Parameters: items (list). Returns: COX-2 SI for each item.
1. O=C(CSc1nnc(-c2ccc(NC(=O)c3cccnc3)cc2)o1)Nc1ccccc1Cl
2. Nn1c(SCC(=O)Nc2cccc(Br)c2)nnc1-c1ccc(NC(=O)c2cccnc2)cc1 [Compound 11f]

# output
[170, 105.56]

---

measurement target: human COX-2 (Homo sapiens)
Sequence (P35354 18-604): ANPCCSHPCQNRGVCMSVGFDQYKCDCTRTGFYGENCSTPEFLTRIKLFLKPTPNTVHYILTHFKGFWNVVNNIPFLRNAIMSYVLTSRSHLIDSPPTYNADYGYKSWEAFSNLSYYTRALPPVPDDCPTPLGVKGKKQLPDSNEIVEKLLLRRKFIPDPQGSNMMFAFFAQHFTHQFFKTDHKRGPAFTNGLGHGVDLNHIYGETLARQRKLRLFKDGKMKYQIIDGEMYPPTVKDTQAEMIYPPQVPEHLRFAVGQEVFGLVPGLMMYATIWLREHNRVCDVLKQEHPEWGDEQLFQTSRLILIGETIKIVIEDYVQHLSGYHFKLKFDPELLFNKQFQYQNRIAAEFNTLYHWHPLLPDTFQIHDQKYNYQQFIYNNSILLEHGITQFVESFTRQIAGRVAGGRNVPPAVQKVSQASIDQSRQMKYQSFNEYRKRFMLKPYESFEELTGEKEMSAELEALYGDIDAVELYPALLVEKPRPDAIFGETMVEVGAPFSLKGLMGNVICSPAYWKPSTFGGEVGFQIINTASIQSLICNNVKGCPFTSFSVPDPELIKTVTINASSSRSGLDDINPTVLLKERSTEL
Task for the reader: assign each of the following compounds its reported IC50.
One number for each entry, in µM.

compound	measurement target	unit of measure	result value
O=C(CSc1nnc(-c2ccc(NC(=O)c3cccnc3)cc2)o1)Nc1ccccc1Cl	human COX-2 (Homo sapiens)	µM	0.05
CC(=O)c1ccc(NC(=O)CSc2nnc(-c3ccc(NC(=O)c4cccnc4)cc3)o2)cc1	human COX-2 (Homo sapiens)	µM	0.05
CC(=O)c1ccc(NC(=O)CSc2nnc(-c3ccc(NC(=O)c4cccnc4)cc3)n2N)cc1 [Compound 11a]	human COX-2 (Homo sapiens)	µM	0.11

// below: IC50 requested for another compound
# input Answer with reported IC50 of "O=C(CSc1nnc(-c2ccc(NC(=O)c3cccnc3)cc2)o1)Nc1ccc(F)cc1"
# output 0.11
